- Tested on: Aspergillus fumigatus
- protocol details: Antifungal activity against Aspergillus fumigatus NCIM 902 assessed as growth inhibition by serial plate dilution method
- Format: functional
measured property: MIC (µg/mL)
Reply numerically in µg/mL, unit not repeated.

INSERT INTO results (compound, observed_value) VALUES
  ('COc1ccc(C2=NN(c3nc(-c4ccc([N+](=O)[O-])cc4)cs3)C(c3ccc(-c4cc(Cl)c(Cl)cc4Cl)o3)C2)cc1OC (centres undefined)', 6.25),
  ('COc1ccc(C2=NN(c3nc(-c4ccc([N+](=O)[O-])cc4)cs3)C(c3ccc(-c4ccc(Br)cc4)o3)C2)cc1OC (centres undefined)', 12.5),
  ('CSc1ccc(C2CC(c3ccc(Cl)cc3)=NN2c2nc(-c3ccc([N+](=O)[O-])cc3)cs2)cc1 (centres undefined)', 6.25),
  ('COc1ccc(C2=NN(c3nc(-c4ccc([N+](=O)[O-])cc4)cs3)C(c3ccc(SC)cc3)C2)cc1OC (centres undefined)', 25),
  ('COc1ccc(C2=NN(c3nc(-c4ccc([N+](=O)[O-])cc4)cs3)C(c3ccc(-c4ccc(Cl)cc4)o3)C2)cc1OC (centres undefined)', 6.25),
  ('CSc1ccc(C2CC(c3ccc([N+](=O)[O-])cc3)=NN2c2nc(-c3ccc([N+](=O)[O-])cc3)cs2)cc1 (centres undefined)', 25),
  ('COc1ccc(C2=NN(c3nc(-c4ccc([N+](=O)[O-])cc4)cs3)C(c3ccc(-c4ccc(Cl)cc4Cl)o3)C2)cc1OC (centres undefined)', 6.25),
  ('COc1ccc(C2=NN(c3nc(-c4ccc([N+](=O)[O-])cc4)cs3)C(c3ccc(-c4ccc(F)c(Cl)c4)o3)C2)cc1OC (centres undefined)', 6.25);

Continue with the compound presented below.
Ask: Return reported MIC; argument: COc1ccc(C2=NN(c3nc(-c4ccc([N+](=O)[O-])cc4)cs3)C(c3ccc(-c4ccc([N+](=O)[O-])cc4)o3)C2)cc1OC (centres undefined)
Reply: 6.25

---

Collected MIC values appear next to each entry.
- Test system: Aspergillus fumigatus
- protocol details: Antifungal activity against Aspergillus fumigatus NCIM 902 assessed as growth inhibition by serial plate dilution method
- Assay type: functional

INSERT INTO measurements (compound, observed_value) VALUES
  ('COc1ccc(-c2ccc(C3CC(c4ccc(OC)c(OC)c4)=NN3c3nc(-c4ccc([N+](=O)[O-])cc4)cs3)o2)c([N+](=O)[O-])c1 (stereo not given)', '12.5 µg/mL'),
  ('COc1ccc(C2=NN(c3nc(-c4ccc([N+](=O)[O-])cc4)cs3)C(c3ccc(-c4c(C)cccc4[N+](=O)[O-])o3)C2)cc1OC (stereo not given)', '12.5 µg/mL'),
  ('O=[N+]([O-])c1ccc(-c2csc(N3N=C(c4ccccc4)CC3c3ccc(-c4ccc(Cl)cc4)o3)n2)cc1 (stereo not given)', '12.5 µg/mL'),
  ('CCC(C)n1ncn(-c2ccc(N3CCN(c4ccc(OCC5COC(Cn6cncn6)(c6ccc(Cl)cc6Cl)O5)cc4)CC3)cc2)c1=O (stereo not given) [ITRACONAZOLE]', '6.25 µg/mL');

Continue with the compound presented below.
Ask: Return reported MIC; argument: CSc1ccc(C2CC(c3ccc(Cl)cc3Cl)=NN2c2nc(-c3ccc([N+](=O)[O-])cc3)cs2)cc1 (stereo not given)
Reply: 6.25 µg/mL
